# experimental system: Peroxisome proliferator-activated receptor gamma (Homo sapiens)
# Sequence (P37231 whole entry): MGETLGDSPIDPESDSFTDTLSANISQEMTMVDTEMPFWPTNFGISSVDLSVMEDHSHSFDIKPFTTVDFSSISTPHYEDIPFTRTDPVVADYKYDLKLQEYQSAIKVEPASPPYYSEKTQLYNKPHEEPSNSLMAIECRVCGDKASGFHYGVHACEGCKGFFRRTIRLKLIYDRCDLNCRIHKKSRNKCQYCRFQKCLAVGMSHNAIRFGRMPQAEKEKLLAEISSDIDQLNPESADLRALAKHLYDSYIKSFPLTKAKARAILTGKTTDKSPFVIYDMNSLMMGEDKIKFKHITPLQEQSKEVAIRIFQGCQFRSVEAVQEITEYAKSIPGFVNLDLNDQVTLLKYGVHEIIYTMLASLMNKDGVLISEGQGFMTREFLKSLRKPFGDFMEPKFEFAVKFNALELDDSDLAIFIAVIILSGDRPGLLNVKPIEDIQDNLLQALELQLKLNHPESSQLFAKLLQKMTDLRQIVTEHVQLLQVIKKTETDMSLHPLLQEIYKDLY
# assay text: Displacement of radiolabeled darglitazone from human PPAR gamma by SPA assay
pKi: −log10 of the molar value.
quantity measured: pKi

Worked set:
>  <molecule>
COC(C)(Cc1ccc(OCCc2nc(-c3ccccc3)oc2C)cn1)C(=O)O (centres undefined)

>  <experimental system>
Peroxisome proliferator-activated receptor gamma (Homo sapiens)

>  <quantity measured>
pKi

>  <measured>
5.80

$$$$
>  <molecule>
COC(Cc1ccc(OCCc2nc(-c3ccccc3)oc2C)cn1)C(=O)O (centres undefined)

>  <experimental system>
Peroxisome proliferator-activated receptor gamma (Homo sapiens)

>  <quantity measured>
pKi

>  <measured>
6.46

$$$$

[A] CCOC(Cc1ccc(OCCc2nc(-c3ccccc3)oc2C)cn1)C(=O)O (centres undefined)
[B] Cc1oc(-c2ccccc2)nc1CCOc1cnc(CC2(C(=O)O)CCCO2)cn1 (centres undefined)
Between these two entries, A and B , state which has the higher pKi. Answer = label.
A

====

# experimental system: Peroxisome proliferator-activated receptor alpha (Homo sapiens)
# Sequence (Q07869 whole entry): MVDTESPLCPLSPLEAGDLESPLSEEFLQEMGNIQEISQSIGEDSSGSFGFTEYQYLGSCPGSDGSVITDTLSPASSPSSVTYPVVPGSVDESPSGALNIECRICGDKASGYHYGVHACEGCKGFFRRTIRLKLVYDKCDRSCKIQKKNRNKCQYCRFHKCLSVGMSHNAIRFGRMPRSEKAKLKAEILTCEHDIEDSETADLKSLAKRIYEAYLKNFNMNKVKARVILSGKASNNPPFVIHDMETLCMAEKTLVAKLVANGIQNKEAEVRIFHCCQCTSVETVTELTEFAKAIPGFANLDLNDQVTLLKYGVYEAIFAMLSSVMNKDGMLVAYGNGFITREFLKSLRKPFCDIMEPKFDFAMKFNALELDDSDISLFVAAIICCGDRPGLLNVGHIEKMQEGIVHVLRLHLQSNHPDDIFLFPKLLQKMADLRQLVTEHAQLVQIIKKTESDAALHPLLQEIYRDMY
# assay text: Agonist activity at human PPAR alpha in HepG2 cells by PPAR-GAL4 transactivation assay
# Assay type: functional, cell-based
pEC50: −log10 of the molar value.
quantity measured: pEC50

Worked set:
>  <compound>
CCOC(Cc1ccc(OCCc2nc(-c3ccccc3)oc2C)cn1)C(=O)O (stereo unspecified)

>  <quantity measured>
pEC50

>  <measured>
5.91

$$$$
>  <compound>
COC(C)(Cc1ccc(OCCc2nc(-c3ccccc3)oc2C)cn1)C(=O)O (stereo unspecified)

>  <quantity measured>
pEC50

>  <measured>
6.05

$$$$
>  <compound>
COc1cccc(-c2nc(CCOc3ccc(CC4(C(=O)O)CCCO4)nc3)c(C)o2)c1 (stereo unspecified)

>  <quantity measured>
pEC50

>  <measured>
5.80

$$$$

[P] Cc1cccc(-c2nc(CCOc3ccc(CC4(C(=O)O)CCCO4)nc3)c(C)o2)c1 (stereo unspecified)
[Q] Cc1oc(-c2ccccc2)nc1CCOc1cnc(CC2(C(=O)O)CCCO2)cn1 (stereo unspecified)
[R] Cc1oc(-c2ccc(Cl)cc2)nc1CCOc1ccc(CC2(C(=O)O)CCCO2)nc1 (stereo unspecified)
[S] COC(Cc1ccc(OCCc2nc(-c3ccccc3)oc2C)cn1)C(=O)O (stereo unspecified)
[T] COc1ccc(-c2nc(CCOc3ccc(CC4(C(=O)O)CCCO4)nc3)c(C)o2)cc1 (stereo unspecified)
Your job: order these 5 records by pEC50, ascending. List the labels according to the requested ordering.
S, Q, P, T, R
